- System: red blood cells
- condition-set: 25
Where a SMILES comes first, the peptide text is derived from it. [ ]: non-standard residue; d: D form. ξ: configuration not given here. ξTic = O=C(O)C1Cc2ccccc2CN1
quantity-kind: % hemolysis 100/25 μM (second value)
Hi, when you answer, please include the unit after the number. Thanks!

Query block: Note down % hemolysis 100/25 μM (second value) recorded for CC(=O)NCC(=O)N[C@@H](Cc1ccccc1)C(=O)N1Cc2ccccc2CC1C(=O)NCC(=O)N[C@@H](CCCCN)C(=O)N1Cc2ccccc2CC1C(=O)NCC(=O)N[C@@H](Cc1ccccc1)C(=O)N1Cc2ccccc2CC1C(=O)NCC(=O)N[C@@H](CCCCN)C(=O)N1Cc2ccccc2CC1C(=O)N[C@@H](CCCCN)C(=O)N[C@@H](CCCCN)C(=O)N[C@@H](CCCCN)C(=O)N[C@@H](CCCCN)C(N)=O (stereo partly shown) [FKAB-1Gg] (Ac-GF[ξTic]GK[ξTic]GF[ξTic]GK[ξTic]KKKK-NH2)
Result block: 4.9%

====

- test-details: in vitro
- condition-set: monkey, microsomes, pH 7.4
Where a SMILES comes first, the peptide text is derived from it. [ ]: non-standard residue; d: D form. ξ: configuration not given here. ξTic = O=C(O)C1Cc2ccccc2CN1; ξOic = O=C(O)C1CC2CCCCC2N1
quantity-kind: remaining at 0.25 h, 1 μM (%)
Give just the numeric value; % need not be written.

Query block: Note down remaining at 0.25 h, 1 μM recorded for CC(C)NCC(O)COc1cccc2ccccc12 (stereo not shown) [Propranolol, propranolol, reference compound]
Result block: 34

Query block: Note down remaining at 0.25 h, 1 μM recorded for CC(=O)N[C@@H](Cc1ccccc1)C(=O)N1Cc2ccccc2CC1C(=O)N1C(C(=O)N[C@@H](CCCCN)C(=O)N2Cc3ccccc3CC2C(=O)N2C(C(=O)N[C@@H](Cc3ccccc3)C(=O)N3Cc4ccccc4CC3C(=O)N3C(C(=O)N[C@@H](CCCCN)C(=O)N4Cc5ccccc5CC4C(=O)N[C@@H](CCCCN)C(=O)N[C@@H](CCCCN)C(=O)N[C@@H](CCCCN)C(=O)N[C@@H](CCCCN)C(N)=O)CC4CCCCC43)CC3CCCCC32)CC2CCCCC21 (stereo partly shown) [FKAB-1Gc] (Ac-F[ξTic][ξOic]K[ξTic][ξOic]F[ξTic][ξOic]K[ξTic]KKKK-NH2)
Result block: 17

Query block: Note down remaining at 0.25 h, 1 μM recorded for CC(=O)NCC(=O)N1Cc2ccccc2CC1C(=O)N1C(C(=O)N[C@@H](CCCCN)C(=O)N2Cc3ccccc3CC2C(=O)N2C(C(=O)NCC(=O)N3Cc4ccccc4CC3C(=O)N3C(C(=O)N[C@@H](CCCCN)C(=O)N4Cc5ccccc5CC4C(=O)N[C@@H](CCCCN)C(=O)N[C@@H](CCCCN)C(=O)N[C@@H](CCCCN)C(=O)N[C@@H](CCCCN)C(N)=O)CC4CCCCC43)CC3CCCCC32)CC2CCCCC21 (stereo partly shown) [FKAB-1Ge] (Ac-G[ξTic][ξOic]K[ξTic][ξOic]G[ξTic][ξOic]K[ξTic]KKKK-NH2)
Result block: 56

Query block: Note down remaining at 0.25 h, 1 μM recorded for CC(=O)CC(c1ccccc1)c1c(O)c2ccccc2oc1=O (stereo not shown) [Warfarin, warfarin, reference compound]
Result block: 113
